The measurements presented in this section are drawn from ChEMBL document CHEMBL4513216.

Assay: Toxicity liver stage against HepG2, at 10uM
Format: cell-based
Set-up: test concentration 10 uM, cell line HepG2-A16-CD81EGFP
Conditions: human, HepG2-A16-CD81EGFP cells; read-out: INHIBITION
Experimental Readout: cytotoxicity at 10 µM (%)
Answer with a number only, understood to be in %.

>>> print(df.to_string())
                                   compound  display_unit  number
0  COc1cccc(CCC(=O)N2CCC[C@@H](N)[C@@H]2c2ccccc2F)c1             %     8.3

Form field: reported cytotoxicity at 10 µM of C[C@@H]1C[C@H]2CN(C(=O)c3ccncn3)C[C@H]2O1 0.748

Field entry: Cc1cc(Br)ccc1CNC(=O)C1(O)CCSCC1 8.88

Here is the next compound: Cn1c(CN2CCCCC2)cc(=O)c(O)c1CN1CCCCC1 -2.34

Now give it for OCC1CCCN1c1cc(N2CCC(OC3CCCC3)CC2)ncn1 (configuration not stated) too. -2.43

Next compound up: COCCN(C)C[C@@H]1CN(C(=O)c2cccc(Cl)c2)C[C@@H]1CO -16.7

Now try COc1ccc(OC2CCN(c3ccncc3)CC2)cc1 . 2.1

Now consider COc1ncc(-c2cc(-c3ccn(C)c3)nc(N)c2C#N)cn1 and answer again. 0.471

Same question, c1ncn(Cc2cn3c(n2)CN(CC2CCCCC2)CC3)n1 this time -123

Input O=C(NCc1ccnc(OCC(F)(F)F)c1)NCC1COCCO1 (configuration not stated) 1.81
